observed-property: melting point

Use these answered entries as a reference point.
CCCc1c(OCCNC(=O)/C=C/c2cc(OC)c(OC)c(OC)c2)ccc2c(=O)cc(-c3cc(OC)c(OC)c(OC)c3)oc12 : 198 to 199 °C
CCCc1c(OCC(=O)O)ccc(C(=O)/C=C/c2cc(OC)c(OC)c(OC)c2)c1OCC(=O)O : 212 to 214 °C

Attention now turns to another entry.
Incoming: I am curious: what melting point value has been reported for CCCc1c(OCCNC(=O)OC(C)(C)C)ccc2c(=O)cc(-c3cc(OC)c(OC)c(OC)c3)oc12 ?
Outgoing: 191 to 193 °C

Data provenance is paper PMC10303900.
